All values here come from a collection of fitness landscapes (doi:10.1016/j.celrep.2020.107928).

Recorded one-hybrid fitness for binding NBS DNA, one value per entry.
B1: Caulobacter ParB omega fusion; a variant is named by its letters at X, in order, B8GW30 (parent)
chain: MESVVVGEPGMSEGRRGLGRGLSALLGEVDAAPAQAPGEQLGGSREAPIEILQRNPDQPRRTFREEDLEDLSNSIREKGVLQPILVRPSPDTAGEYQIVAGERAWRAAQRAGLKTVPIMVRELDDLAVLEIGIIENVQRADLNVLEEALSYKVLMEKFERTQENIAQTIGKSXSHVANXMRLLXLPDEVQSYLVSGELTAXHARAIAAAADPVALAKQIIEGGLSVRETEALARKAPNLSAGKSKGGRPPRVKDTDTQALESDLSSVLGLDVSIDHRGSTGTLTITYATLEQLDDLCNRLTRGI

Variants of: B1
Assay: one-hybrid fitness for binding NBS DNA (the Noc-binding site; scaled: cognate 1, non-cognate 0); higher = stronger binding
Conditions: with NBS DNA site
Over roughly 81,000 sequences, “one-hybrid fitness for binding NBS DNA” has its median near -0.1; the highest 2% begin near 0.36. The list comes from a sample in which the highest values are over-represented; it also holds close analogues and randomly drawn sequences.

Form field one-hybrid fitness for binding NBS DNA, entry `RVTD` : ≤ 0.2

Form field one-hybrid fitness for binding NBS DNA, entry `RIHS` : 0.381

Form field one-hybrid fitness for binding NBS DNA, entry `VASM` : ≤ 0.2

Form field one-hybrid fitness for binding NBS DNA, entry `AIFT` : ≤ 0.2

Form field one-hybrid fitness for binding NBS DNA, entry `DNKI` : ≤ 0.2
